# SYSTEM_UNDER_TEST: feline FcRn (FCN-F82W3, Acrobiosystems) (feline)
# EXPERIMENT_SUMMARY: SPR Carterra, IgG coupled, pH 6.0
OBSERVATION_TYPE: koff (s⁻¹)
Provide only the numeric value, understood in s⁻¹.

BINDER	MEASURE_UNIT	koff
anti-NGF feline IgG1a, Fc variant E293H (antibody, part only; not given: anti-NGF variable domains, light chain, not shown: another chain or arm of the molecule; small tags and cut ends) Fc: PPEMLGGPSIFIFPPKPKDTLSISRTPEVTCLVVDLGPDDSDVQITWFVDNTQVYTAKTSPRHEQFNSTYRVVSVLPILHQDWLKGKEFKCKVNSKSLPSPIERTISKAKGQPHEPQVYVLPPAQEELSRNKVSVTCLIKSFHPPDIAVEWEITGQPEPENNYRTTPPQLDSDGTYFVYSKLSVDRSHWQRGNTYTCSVSHEALHSHHTQKSLTQSPGK	s⁻¹	0.0665

Tell me its koff given anti-NGF feline IgG1a, Fc variant S252Y, Q311L (antibody, part only; not given: anti-NGF variable domains, not shown: another chain or arm of the molecule; small tags and cut ends) Fc: PPEMLGGPSIFIFPPKPKDTLYISRTPEVTCLVVDLGPDDSDVQITWFVDNTQVYTAKTSPREEQFNSTYRVVSVLPILHLDWLKGKEFKCKVNSKSLPSPIERTISKAKGQPHEPQVYVLPPAQEELSRNKVSVTCLIKSFHPPDIAVEWEITGQPEPENNYRTTPPQLDSDGTYFVYSKLSVDRSHWQRGNTYTCSVSHEALHSHHTQKSLTQSPGK as the entry.
0.00516

Fill in reported koff for this entry: anti-NGF feline IgG1a, Fc variant S434Y, T289K (antibody, part only; not given: Anti-NGF variable domains, not shown: another chain or arm of the molecule; small tags and cut ends) Fc: PPEMLGGPSIFIFPPKPKDTLSISRTPEVTCLVVDLGPDDSDVQITWFVDNTQVYTAKKSPREEQFNSTYRVVSVLPILHQDWLKGKEFKCKVNSKSLPSPIERTISKAKGQPHEPQVYVLPPAQEELSRNKVSVTCLIKSFHPPDIAVEWEITGQPEPENNYRTTPPQLDSDGTYFVYSKLSVDRSHWQRGNTYTCSVSHEALHYHHTQKSLTQSPGK
0.00559
